System: TK-10
Test: NCI tumour cell line growth inhibition, 48 h
The source made the active and inactive calls. Cut-off read from the data, not from the text of the source: active = GI50 up to about 1.1 µM and inactive = higher. Bridge positions count the residues as written; N and C are the ends. Peptide text beside a SMILES is read from it. * marks the point of attachment. Cbz = O=C(OCc1ccccc1)*

Molecule	Target desc	GI50
C/C(=N\NC(=O)c1ccccc1O)c1cccc(/C(C)=N/NC(=O)c2ccccc2O)n1	TK-10	18.6 µM (inactive)
CC(C)Cn1cnc2c(Sc3c([N+](=O)[O-])ncn3C)nc(N)nc21	TK-10	> 41.1 µM (inactive)
CNC(=O)C1CCCCNC(=O)CCC(NC(=O)OCc2ccccc2)C(=O)N1 (stereo not drawn) (Cbz-Glu-Lys-NHMe; lactam 1-2; configuration not given here)	TK-10	> 100 µM (inactive)
CC1(C)CCC2=C(O1)c1ccccc1/C(=N/c1ccc([N+](=O)[O-])cc1)C2=O	TK-10	18.6 µM (inactive)
